ASSAY_METHOD_TEXT: Induction of NO release in 0.1 M Tris-HCl and 0.1 mM DTPA at pH 7.4 measured for 20 mins in presence of cysteine
Type: physicochemical
EXPERIMENTAL_CONDITIONS: buffer, pH 7.4, 20 min
MEASUREMENT_KIND: Activity (nM/min)
Quick note: give the figure in nM/min, leave out the unit.

Query block: For the compound Cc1[nH]cnc1C(=O)N/N=C/c1ccc2no[n+]([O-])c2c1 , what Activity is on record?
Result block: 0

Query block: Give the measured Activity of Cc1nc2ccccn2c1C(=O)N/N=C/c1c(-c2ccccc2)no[n+]1[O-] .
Result block: 0

Query block: State the recorded Activity for this entry: O=S(=O)(c1ccccc1)c1no[n+]([O-])c1S(=O)(=O)c1ccccc1
Result block: 3700

---
Query block: Fill in the blank: the reported Activity of O=C(N/N=C/c1c(-c2ccccc2)no[n+]1[O-])c1ccc2c(c1)OCO2 is ____.
Result block: 0

Query block: Activity for Cc1c(C(=O)N/N=C/c2ccc(C(=O)O)cc2)no[n+]1[O-] ?
Result block: 1.04

Query block: Could you share which Activity value was measured for O=C(N/N=C/c1ccc2no[n+]([O-])c2c1)c1cccnc1 ?
Result block: 0

###

ASSAY_METHOD_TEXT: Inhibition of soybean lipoxygenase using arachidonic acid as substrate
Design: species or system Glycine max
MEASUREMENT_KIND: pIC50
Just so you know, pIC50 here is -log10 of the concentration in molar units; reply with that number alone.

Query block: What does the record list as pIC50 for Cc1c(/C=N/NC(=O)c2no[n+]([O-])c2C)no[n+]1[O-] ?
Result block: 4.30

Query block: May I ask what pIC50 has been recorded for Cc1c(C(=O)N/N=C/c2ccc(C(F)(F)F)cc2)no[n+]1[O-] ?
Result block: 4.30

Query block: Report pIC50 for Cc1c(C(=O)N/N=C/c2ccc(C(=O)O)cc2)no[n+]1[O-] please.
Result block: 4.46

Query block: Looking for the measured pIC50 of O=C(N/N=C/c1ccc2no[n+]([O-])c2c1)c1ccc2c(c1)OCO2 , can you help?
Result block: 4.30

Query block: Which measured pIC50 value corresponds to O=C(O)c1ccc(/C=N/NC(=O)c2c(-c3ccccc3)no[n+]2[O-])cc1 ?
Result block: 4.30

###

System: Mus musculus
ASSAY_METHOD_TEXT: Analgesic activity in albino mouse assessed as inhibition of acetic acid-induced abdominal constriction at 100 umol/kg, po administered 1 hr before acetic acid challenge measured after 30 mins relative to control
Format: functional
EXPERIMENTAL_CONDITIONS: Abdomen
MEASUREMENT_KIND: inhibition in vivo at 100 µmol/kg (%)
Provide the reading as a plain figure in %.

Query block: What value of measured inhibition in vivo at 100 µmol/kg is listed for O=C(N/N=C/c1c(-c2ccccc2)no[n+]1[O-])c1ccc2c(c1)OCO2 ?
Result block: 42

---
Query block: Form field: reported inhibition in vivo at 100 µmol/kg of Cc1nc2ccccn2c1C(=O)N/N=C/c1c(-c2ccccc2)no[n+]1[O-]
Result block: 2

Query block: Fill in the blank: the reported inhibition in vivo at 100 µmol/kg of O=C(N/N=C/c1ccc2no[n+]([O-])c2c1)c1cccnc1 is ____.
Result block: 35

Query block: # query: inhibition in vivo at 100 µmol/kg of entry Cc1[nH]cnc1C(=O)N/N=C/c1ccc2no[n+]([O-])c2c1
Result block: 46

###

// values below are reported inhibition
Test system: Glycine max
ASSAY_METHOD_TEXT: Inhibition of soybean lipoxygenase using arachidonic acid as substrate at 50 uM
Kindly provide the numeric value in % only, without the unit symbol.

Query block: Param readout = inhibition; param system = Glycine max; param query = Cc1c(C(=O)N/N=C/c2ccc(Br)cc2)no[n+]1[O-] ; response: value
Result block: 0

Query block: Item: Cc1c(C(=O)N/N=C/c2ccc(C(F)(F)F)cc2)no[n+]1[O-] Test system: Glycine max Read-out: inhibition Value: ?
Result block: 55

Query block: Recall the recorded inhibition for O=C(N/N=C/c1c(-c2ccccc2)no[n+]1[O-])c1cccnc1 with Glycine max and state it.
Result block: 14

Query block: // fetch Glycine max inhibition for Cc1c(C(=O)N/N=C/c2ccco2)no[n+]1[O-]
Result block: 0

Query block: Under Glycine max: inhibition value of Cc1[nH]cnc1C(=O)N/N=C/c1no[n+]([O-])c1C ?
Result block: 27

Query block: Hello, I am looking for reported inhibition with Glycine max for Cc1nc2ccccn2c1C(=O)N/N=C/c1c(-c2ccccc2)no[n+]1[O-] . Could you help?
Result block: 0

New cases:
Query block: inhibition of COc1ccc(/C=N/NC(=O)c2no[n+]([O-])c2C)cc1O on Glycine max?
Result block: 58

Query block: Glycine max / inhibition / Cc1c(/C=N/NC(=O)c2cnn(-c3ccccc3)c2)no[n+]1[O-] (mixture of isomers) : value?
Result block: 0

Query block: Form field - read-out: inhibition; system: Glycine max; submitted item: Cc1c(/C=N/NC(=O)c2cccnc2)no[n+]1[O-] (mixture of isomers)
Result block: 22

Query block: Kindly state the measured inhibition obtained for O=C(N/N=C/c1ccc2no[n+]([O-])c2c1)c1ccc2c(c1)OCO2 with Glycine max.
Result block: 55

###

ASSAY_METHOD_TEXT: Induction of NO release in 0.1 M Tris-HCl and 0.1 mM DTPA at pH 8.3 measured for 20 mins in presence of cysteine
Type: physicochemical
EXPERIMENTAL_CONDITIONS: buffer, pH 8.3, 20 min
MEASUREMENT_KIND: Activity
For clarity, give the value followed by its unit.

These recorded examples may help you get a feel for the data.
Query block: Param item = O=C(O)c1ccc(/C=N/NC(=O)c2c(-c3ccccc3)no[n+]2[O-])cc1 ; retrieve measured Activity.
Result block: 0 nM/min

Query block: Reported Activity, molecule Cc1c(C(=O)N/N=C/c2ccc(C(=O)O)cc2)no[n+]1[O-] : ____
Result block: 0.19 nM/min

Query block: Value lookup for Activity; key = O=C(N/N=C/c1ccc2no[n+]([O-])c2c1)c1cccnc1
Result block: 0.64 nM/min

Query block: Can you look up the measured Activity of O=C(N/N=C/c1ccc2no[n+]([O-])c2c1)c1ccc2c(c1)OCO2 for me?
Result block: 0 nM/min

Query block: If you can, please state the reported Activity value of O=C(N/N=C/c1c(-c2ccccc2)no[n+]1[O-])c1ccc2c(c1)OCO2 .
Result block: 0.39 nM/min

Query block: Look up Activity: COc1cc(/C=N/NC(=O)c2no[n+]([O-])c2C)ccc1O
Result block: 0 nM/min

Query block: Name the reported Activity value associated with the molecule Cc1[nH]cnc1C(=O)N/N=C/c1ccc2no[n+]([O-])c2c1
Result block: 0 nM/min

Now turn to the next molecule.
Query block: Requested field: Activity. Item: Cc1nc2ccccn2c1C(=O)N/N=C/c1c(-c2ccccc2)no[n+]1[O-]
Result block: 0 nM/min

###

Each item that follows carries a reported MNTC at 24 h.
ASSAY_METHOD_TEXT: Cytotoxicity against human HT-29 cells expressing NF-kappaB-hrGFP assessed as highest non-cytotoxic dose for 100% cell survival after 24 hrs by MTT assay
Assay type: cell-based
EXPERIMENTAL_CONDITIONS: read-out: Activity
# output: bare number, implied unit µM

Query block: Could you share which MNTC at 24 h value was measured for Cc1c(/C=N/NC(=O)c2no[n+]([O-])c2C)no[n+]1[O-] ?
Result block: 100

Query block: MNTC at 24 h lookup needed for Cc1[nH]cnc1C(=O)N/N=C/c1ccc2no[n+]([O-])c2c1 , thanks.
Result block: 50

Query block: Look up MNTC at 24 h: Cc1c(C(=O)N/N=C/c2ccc(C(F)(F)F)cc2)no[n+]1[O-]
Result block: 400

Query block: Using the record for Cc1c(C(=O)N/N=C/c2ccc(Br)cc2)no[n+]1[O-] , report its MNTC at 24 h.
Result block: 100

Next:
Query block: Could you share which MNTC at 24 h value was measured for Cc1c(C(=O)N/N=C/c2ccc([N+](=O)[O-])s2)no[n+]1[O-] ?
Result block: 100

Query block: Which value of MNTC at 24 h has been reported for Cc1[nH]cnc1C(=O)N/N=C/c1c(-c2ccccc2)no[n+]1[O-] in the records?
Result block: 200

Query block: Give the measured MNTC at 24 h of Cc1c(C(=O)N/N=C/c2ccc([N+](=O)[O-])o2)no[n+]1[O-] .
Result block: 100

###

Tested on: Glycine max
ASSAY_METHOD_TEXT: Inhibition of soybean lipoxygenase using arachidonic acid as substrate at 50 uM
MEASUREMENT_KIND: inhibition (%)
I only need the number, in %, no unit after it.

Answered cases to consult:
Query block: Dear colleague, I am looking for the recorded inhibition of the following compound: COc1cc(/C=N/NC(=O)c2no[n+]([O-])c2C)ccc1O
Result block: 1

Query block: Reported inhibition, compound Cc1c(/C=N/NC(=O)c2no[n+]([O-])c2C)no[n+]1[O-] : ____
Result block: 55

Query block: Which inhibition value is on record for COc1ccc(/C=N/NC(=O)c2no[n+]([O-])c2C)cc1OC ?
Result block: 0

Query block: inhibition lookup needed for O=C(N/N=C/c1c(-c2ccccc2)no[n+]1[O-])c1ccc2c(c1)OCO2 , thanks.
Result block: 0

For the next question, use this compound.
Query block: Query (compound): Cc1[nH]cnc1C(=O)N/N=C/c1ccc2no[n+]([O-])c2c1 ; field requested: inhibition
Result block: 0
